# measurement-target: rat GPR40 (Rattus norvegicus)
# Sequence (Q8K3T4 whole entry): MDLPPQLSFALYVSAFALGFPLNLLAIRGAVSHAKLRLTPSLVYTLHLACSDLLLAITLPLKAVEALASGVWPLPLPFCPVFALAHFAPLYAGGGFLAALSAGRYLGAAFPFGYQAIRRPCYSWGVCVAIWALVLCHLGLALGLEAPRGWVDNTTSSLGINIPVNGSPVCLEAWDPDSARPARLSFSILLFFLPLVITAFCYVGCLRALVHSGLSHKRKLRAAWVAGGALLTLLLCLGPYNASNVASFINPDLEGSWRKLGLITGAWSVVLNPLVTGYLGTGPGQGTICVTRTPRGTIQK
# assay-method-text: GPR40 calcium flux assay, HEK293 cells stably expressing rat GPR40
# applied-conditions: transfected HEK293 cells stably expressing rat GPR40, Fluo 8 dye, read-out: rGPR40 Ca2+ Assay EC50
observable: EC50 (nM)

COc1ccc(C(=O)Nc2ccccn2)c(C2CCC(COc3cccc([C@H](C4CC4)C(C)(F)C(=O)O)c3)CC2)c1 (stereo partly drawn) = 2.36
COc1ccc(F)c([C@H]2CC[C@H](COc3cccc([C@@H](CC(=O)O)C4CC4)c3)CC2)c1 = 3.4
COc1ccc(F)c(C2CCC(COc3cccc([C@H](C4CC4)C(F)C(=O)O)c3)CC2)c1 (stereo partly drawn) = 1.4
COc1ccc(F)c([C@H]2CC[C@H](COc3cccc(C(CC(=O)O)C4CC4)n3)CC2)c1 (mixture of isomers) = 143
COc1cc([C@H]2CC[C@H](COc3cc([C@@H](Cc4nnn[nH]4)C4CC4)ccn3)CC2)c(F)cn1 = 464
COc1ccc(F)c([C@H]2CC[C@H](CNc3cccc([C@H](C4CC4)C(C)(F)C(=O)O)c3)CC2)c1 (stereo partly drawn) = 10.4
COc1cc([C@H]2CC[C@@H](COc3ccnc(C(CC(=O)O)C4CC4)c3)CC2)c(F)cn1 (stereo partly drawn) = 256
COc1cc([C@H]2CC[C@H](COc3cc([C@H](CC(=O)O)C4CC4)ccn3)CC2)c(F)cn1 = 20.7
COc1ccc(Cl)c(C2CCC(COc3cccc([C@H](C4CC4)[C@@](C)(F)C(=O)O)c3)CC2)c1 (stereo partly drawn) = 0.56
COc1ccc(F)c([C@H]2CC[C@H](COc3cccc([C@@H](Cc4nnn[nH]4)C4CC4)c3)CC2)c1 = 388
COc1cc([C@H]2CC[C@H](COc3cccc([C@H](C4CC4)[C@](C)(F)C(=O)O)c3)CC2)c(F)cn1 = 86.7
COc1ccc(F)c([C@H]2CC[C@H](COc3ccnc(C(CC(=O)O)C4CC4)c3)CC2)c1 (stereo partly drawn) = 282
CCc1ccc(F)c([C@H]2CC[C@H](COc3cccc([C@H](C4CC4)[C@H](C)C(=O)O)c3)CC2)c1 = 1.2
COc1ccc(F)c([C@H]2CC[C@H](COc3cccc([C@H](C4CC4)C(C)C(=O)O)c3)CC2)c1 (single isomer, unassigned) = 4.9
COc1ccc(F)c(C2CCC(COc3cccc([C@@H](CC(=O)O)C4CC4)c3)C(CC(C)C)C2)c1 (stereo partly drawn) = 40.9

----------
# measurement-target: rat GPR40 (Rattus norvegicus)
# assay-method-text: GPR40 calcium flux assay, HEK293 cells stably expressing rat GPR40
# applied-conditions: transfected HEK293 cells stably expressing rat GPR40, Fluo 8 dye, read-out: rGPR40 Ca2+ Assay EC50
observable: log10 of EC50 (log10 of the value in µM)

COc1cccc(C2CCC(COc3cccc([C@H](C4CC4)C(C)(F)C(=O)O)c3)CC2)c1 (stereo partly shown) = -3.40
COc1cc(C2CCC(COc3cccc([C@@H](CC(=O)O)C4CC4)c3)C(CC(C)C)C2)c(F)cn1 (stereo partly shown) = -1.53
COc1cc([C@H]2CC[C@H](COc3cccc([C@H](C4CC4)[C@@](C)(F)C(=O)O)c3)CC2)c(F)cn1 = -3.25
COc1ccc(F)c([C@]2(F)CC[C@H](COc3cccc([C@@H](CC(=O)O)C4CC4)c3)CC2)c1 = -0.68
COc1ccc(F)c([C@H]2CC[C@H](COc3cccc([C@H](CC(=O)O)C4CC4)c3)CC2)c1 = -1.81
COc1ccc(F)c([C@H]2CC[C@H](COc3cccc([C@H](C4CC4)[C@H](C)C(=O)O)c3)CC2)c1 = -3.40
COc1cc([C@H]2CC[C@@H](COc3cccc([C@@H](CC(=O)O)C4CC4)c3)CC2)c(F)cn1 = -1.12
COc1ccc(F)c([C@H]2CC[C@@H](COc3cccc([C@@H](CC(=O)O)C4CC4)c3)CC2)c1 = -0.98
CCc1ccc(Cl)c(C2CCC(COc3cccc([C@H](C4CC4)C(C)(F)C(=O)O)c3)CC2)c1 (stereo partly shown) = -2.76
COc1ccc(F)c([C@H]2CC[C@H](COc3cc([C@H](CC(=O)O)C4CC4)ccn3)CC2)c1 = -1.70
COc1ccc(F)c([C@H]2CC[C@@H](COc3cccc([C@H](C4CC4)[C@H](C)C(=O)O)c3)CC2)c1 = -2.11
C[C@](F)(C(=O)O)[C@H](c1cccc(OCC2CCC(c3cc(F)ccc3F)CC2)c1)C1CC1 (stereo partly shown) = -2.05
C[C@](F)(C(=O)O)[C@H](c1cccc(OC[C@H]2CC[C@H](c3cc(OC(F)(F)F)ccc3F)CC2)c1)C1CC1 = -1.79
COc1ccc(F)c([C@H]2CC[C@@H](CNc3cccc([C@@H](CC(=O)O)C4CC4)c3)CC2)c1 = -0.83
COc1ccc(F)c([C@]2(OC)CC[C@@H](COc3cccc([C@@H](CC(=O)O)C4CC4)c3)CC2)c1 = -1.74
COc1ccc(F)c([C@H]2CC[C@@H](COc3cc(C(CC(=O)O)C4CC4)ccn3)CC2)c1 (stereo partly shown) = -0.84
COc1ccc(F)c([C@H]2CC[C@H](COc3cc([C@H](C4CC4)C(C)(F)C(=O)O)ccn3)CC2)c1 (stereo partly shown) = -1.55
COc1ccc(F)c(C2CCC(COc3cccc(C(CC(=O)O)C4CC4)c3)CC2)c1 (stereo not shown) = -0.46
COc1ccc(F)c([C@H]2CC[C@H](/C=C/c3cccc([C@@H](CC(=O)O)C4CC4)c3)CC2)c1 = -2.21
COc1ccc(F)c([C@H]2CC[C@@H](COc3cccc([C@@H](Cc4nnn[nH]4)C4CC4)c3)CC2)c1 = 0.50
COc1cc([C@H]2CC[C@H](COc3cc(C(CC(=O)O)C4CC4)ccn3)CC2)c(F)cn1 (stereo partly shown) = -2.85
COc1cc([C@H]2CC[C@H](COc3ccnc(C(CC(=O)O)C4CC4)c3)CC2)c(F)cn1 (stereo partly shown) = -1.27
CC#CC(CC(=O)O)c1cccc(OC[C@H]2CC[C@@H](c3cc(OC)ccc3F)CC2)c1 (stereo partly shown) = -0.40
COc1ccc(C)c(C2CCC(COc3cccc([C@H](C4CC4)C(C)(F)C(=O)O)c3)CC2)c1 (stereo partly shown) = -3.82
COc1ccc(F)c([C@H]2CC[C@H](CCc3cccc([C@@H](CC(=O)O)C4CC4)c3)CC2)c1 = -2.04
COc1cc([C@]2(OC)CC[C@@H](COc3cc([C@@H](CC(=O)O)C4CC4)ccn3)CC2)c(F)cn1 = -1.54
COc1ccc(F)c([C@H]2CC[C@H](COc3cccc([C@H](C4CC4)[C@](C)(F)C(=O)O)c3)CC2)c1 = -2.16
COc1cc([C@H]2CC[C@@H](COc3cc(C(CC(=O)O)C4CC4)ccn3)CC2)c(F)cn1 (stereo partly shown) = -1.10
COc1ccnc(C2CCC(COc3cc([C@@H](CC(=O)O)C4CC4)ccn3)CC2)n1 (stereo partly shown) = 0.05
COc1ccc(F)c([C@]2(F)CC[C@@H](COc3cccc([C@@H](CC(=O)O)C4CC4)c3)CC2)c1 = -1.39
COc1ccc(F)c([C@H]2CC[C@H](/C=C/c3cccc([C@H](C4CC4)C(C)(F)C(=O)O)c3)CC2)c1 (stereo partly shown) = -2.61

The values you see were collected from patent US10988433B2.
